Where do the numbers come from? From the supplement of paper PMC8728848.

# ASSAYED_TARGET: Neu5Ac(a2-8)Neu5Ac(a2-3)Gal(b1-4)GlcNAc
# TEST_NAME: glycan array binding signal (z-score within array); higher = stronger binding
# RUN_CONDITIONS: glycan notation: IUPAC condensed, linker removed
This excerpt belongs to a sample that is enriched for the strongest signals.
Documented glycan array binding signal (z-score) across a set of binders
Give only the figure.

Check out these entries, answers already filled in.
Problem: For the binder Thrombomodulin (Mus musculus) (protein) ALAKLQPTGSQCVEHECFALFQGPATFLDASQACQRLQGHLMTVRSSVAADVISLLLSQSSMDLGPWIGLQLPQGCDDPVHLGPLRGFQWVTGDNHTSYSRWARPNDQTAPLCGPLCVTVSTATEAAPGEPAWEEKPCETETQGFLCEFYFTASC , give its reported glycan array binding signal (z-score).
Result: -0.54

Problem: For the binder FGFR2-Fc (protein) MVNVTDAISSGDDEDDTDGAEDFVSENSNNKRAPYWTNTEKMEKRLHAVPAANTVKFRCPAGGNPMPTMRWLKNGKEFKQEHRIGGYKVRNQHWSLIMESVVPSDKGNYTCVVENEYGSINHTYHLDVVERSPHRPILQAGLPANASTVVGGDVEFVCKVYSDAQPHIQWIKHVEKNGSKYGPDGLPYLKVLKHSGINSSNAEVLALFNVTEADAGEYICKVSNYIGQANQSAWLTVLPKQQAPGREKEITASPDYLETRPLEQKLISEEDLAANDILDYKDDDDKV , give its reported glycan array binding signal (z-score).
Result: -0.139

Please turn your attention to the following entry.
Problem: For the binder LlpB (Pseudomonas fluorescens) (protein) MGSSHHHHHHSSGLVPRGSHMASSGFRIILFNSANNGTAILPPRNCLVAGQYLESPSKRYKLILEADGNLRLYDNGVPIWVADSSVPYTYVDNRPNTNLVTCFYMQGSAFLVDRVGSRTWATIGDWIDGAADRAYLQVQDDGNVVVVDGVPRWARFGFTPAALPNRGVFYPDHGTGPLPSFPVWSWTF , give its reported glycan array binding signal (z-score).
Result: -1.02
